What half-life was measured for each of the following?
- Method summary: Half life in Han Wistar rat plasma at 1 mg/kg, iv measured upto 6 hrs by liquid chromatography tandem mass spectrometry
- Assay type: ADME, organism-based
Answers are plain numbers, in h.

Smiles record	Units text	Obs value
COc1ccc(Cl)c(C(=O)NCC23CC4CC(CC(C4)C2)C3)c1	h	0.47

Turning to the following compound.
Data request: May I ask what half-life has been recorded for COc1ccc(Cl)c(C(=O)NCC23CC4(F)CC(F)(CC(F)(C4)C2)C3)c1 ?
Data returned: 1.72

* * *

- Target desc: P2X purinoceptor 7 (Homo sapiens, UniProt Q99572)
- Sequence (Q99572 whole entry): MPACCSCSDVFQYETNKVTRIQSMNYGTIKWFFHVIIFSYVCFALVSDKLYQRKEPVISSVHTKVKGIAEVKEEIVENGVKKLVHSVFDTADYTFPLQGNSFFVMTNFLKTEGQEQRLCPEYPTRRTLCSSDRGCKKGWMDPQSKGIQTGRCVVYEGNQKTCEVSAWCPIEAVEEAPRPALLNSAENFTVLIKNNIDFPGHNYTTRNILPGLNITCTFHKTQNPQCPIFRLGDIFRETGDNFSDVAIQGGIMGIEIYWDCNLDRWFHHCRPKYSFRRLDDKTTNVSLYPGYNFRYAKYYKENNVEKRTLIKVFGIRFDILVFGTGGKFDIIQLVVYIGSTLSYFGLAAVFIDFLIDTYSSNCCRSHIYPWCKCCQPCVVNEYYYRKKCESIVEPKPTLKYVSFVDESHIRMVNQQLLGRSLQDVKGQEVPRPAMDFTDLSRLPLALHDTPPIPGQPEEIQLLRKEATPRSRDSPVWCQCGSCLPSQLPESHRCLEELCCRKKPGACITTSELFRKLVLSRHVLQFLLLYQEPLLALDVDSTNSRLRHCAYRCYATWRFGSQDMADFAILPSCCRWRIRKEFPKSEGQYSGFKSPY
- Method summary: Antagonist activity at P2X7 in human THP-1 cells
- Type: cell-based
Reported metric: IC50 (nM)
Answers are plain numbers, in nM.

Data request: May I ask what IC50 has been recorded for Cc1ccc2c(=O)n(C(C)CO)ccc2c1NC(=O)Cc1ccc(C(F)(F)F)c(F)c1 (stereo unspecified) ?
Data returned: 9.3

* * *

- Target desc: P2X purinoceptor 7 (Homo sapiens)
- Method summary: Antagonist activity at human P2X7 receptor expressed in 1321N1 cells by FLIPR assay
- Type: cell-based
What log10 IC50 was measured for each of the following?
Short version: log10 scale, IC50, nM.

Sample answers from the record:
Smiles record	Obs value
COc1ccc(C)c(Nc2nc(=O)cnn2Cc2cncc(F)c2)c1	2.00
Cc1ccc(CO)cc1Nc1nc(=O)ccn1Cc1cc(F)c(F)c(F)c1	0.60
Cc1ccc(OCCO)cc1Nc1nc(=O)cnn1Cc1cc(F)c(F)c(F)c1	0.99
Cc1ccc(N2CCCC2=O)cc1Nc1nc(=O)cnn1Cc1cc(F)c(F)c(F)c1	0.76
Cc1c(F)cc(CO)cc1Nc1nc(=O)cnn1Cc1cc(F)c(F)c(F)c1	0.48

Turning to the following compound.
Data request: Request body: readout log10 IC50, system P2X purinoceptor 7 (Homo sapiens), query Cc1ccc(-c2ncco2)cc1Nc1nc(=O)cnn1Cc1cc(F)c(F)c(F)c1 . Return the value.
Data returned: 0.38

* * *

- Target desc: P2X purinoceptor 7 (Mus musculus)
- Sequence (Q9Z1M0 whole entry): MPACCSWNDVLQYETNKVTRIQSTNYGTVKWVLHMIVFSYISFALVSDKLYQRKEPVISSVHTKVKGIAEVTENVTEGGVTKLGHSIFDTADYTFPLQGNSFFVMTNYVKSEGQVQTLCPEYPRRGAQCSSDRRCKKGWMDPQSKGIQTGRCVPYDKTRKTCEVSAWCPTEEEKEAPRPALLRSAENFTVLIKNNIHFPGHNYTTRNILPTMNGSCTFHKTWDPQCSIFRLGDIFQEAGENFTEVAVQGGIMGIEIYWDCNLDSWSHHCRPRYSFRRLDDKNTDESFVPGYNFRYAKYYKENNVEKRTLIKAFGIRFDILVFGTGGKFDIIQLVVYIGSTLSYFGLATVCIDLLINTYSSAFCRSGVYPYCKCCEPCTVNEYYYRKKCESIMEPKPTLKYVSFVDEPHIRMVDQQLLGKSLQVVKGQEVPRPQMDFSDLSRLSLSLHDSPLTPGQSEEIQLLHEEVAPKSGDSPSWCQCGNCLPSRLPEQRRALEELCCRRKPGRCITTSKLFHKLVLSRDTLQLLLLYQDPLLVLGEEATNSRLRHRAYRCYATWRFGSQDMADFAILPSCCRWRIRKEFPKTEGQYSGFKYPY
- Method summary: Inhibition of mouse P2X7 receptor expressed in HEK293 cells incubated for 5 mins followed by Bz-ATP addition measured after 3 mins by fluorescence based assay
- Format: cell-based
Reported metric: pIC50
One number for each entry, as −log10 of the molar value.

Data request: May I ask what pIC50 has been recorded for O=C(NCC(c1scnc1C(F)F)N1CCC(Oc2cccc(Cl)n2)CC1)c1c(F)cccc1Cl (stereo unspecified) ?
Data returned: 7.87
